Data provenance: ChEMBL document CHEMBL3433997

- system-under-test: Hexose transporter 1 (Plasmodium falciparum) (UniProt O97467)
- protocol-notes: ST_JUDE_LEISH: Cytotoxicity at 2uM final concentration against transgenic Leishmania Mexicana promastigotes LmPfHT that are glucose transport deficient and complemented with the Plasmodium falciparum hexose transporter. Activity is measured by DNA content using SYBR green in vitro
- Type: functional
metric-name: inhibition (%)
Give a bare numeral; the unit % is implied.

As a guide, the following entries are already answered.
>  <molecule>
COc1ccc(C(=O)Nc2nonc2-c2ccc(OC)c(OC)c2)cc1Cl

>  <units-label>
%

>  <inhibition>
-0.18

$$$$
>  <molecule>
CN1CCCN(Cc2cccc(-c3ccc(CNC(=O)c4cccc(Cl)c4)c(F)c3)c2)CC1

>  <units-label>
%

>  <inhibition>
63.1

$$$$
>  <molecule>
COc1ccc2nccc([C@@H](O)CN3CCC(NC(=O)c4nc(Cl)c(Cl)c(N)c4Cl)CC3)c2c1

>  <units-label>
%

>  <inhibition>
-0.22

$$$$
>  <molecule>
Cc1c(Cc2ccccc2Cl)cnc2nc(N)nc(N)c12

>  <units-label>
%

>  <inhibition>
37.5

$$$$
>  <molecule>
CC(C)C[C@@H](/C=N/N1CCOC1=O)NC(=O)[C@H](CC(C)C)NC(=O)c1ccc(OCCN2CCOCC2)cc1

>  <units-label>
%

>  <inhibition>
6.46

$$$$

Query string: Provide one value: measured inhibition of COc1ccc(C(=O)COc2cccc(/C=C/C(=O)O)c2)cc1OC
Result string: 0.15

Query string: Provide one value: measured inhibition of c1cc(CNCCN2CCNCC2)cc(-c2ccc(-c3nc4ccccc4[nH]3)cc2)c1
Result string: 16.8

Query string: Provide one value: measured inhibition of Nc1ncc(-c2ccc(NC(=O)Nc3cc(C(F)(F)F)ccc3F)cc2)c(N)n1
Result string: 0.23

Query string: Provide one value: measured inhibition of CN(C)CCN(C)Cc1ccc(-c2ccc(NS(=O)(=O)c3cccc4cccnc34)cc2)cc1
Result string: 9.32

Query string: Provide one value: measured inhibition of Cc1cc(NCc2ccccc2)nc(NCc2ccccc2)n1
Result string: 5.78

Query string: Provide one value: measured inhibition of O=C(/C=C/c1ccc(I)cc1)NCCCCCN1CCC(c2c[nH]c3ccc(O)cc23)CC1
Result string: 1.64

Query string: Provide one value: measured inhibition of NC(=O)c1cccc(C(=O)Nc2ccc(-c3cccc(-c4nc5cc(C(F)(F)F)ccc5[nH]4)c3)cc2)c1
Result string: -0.82

Query string: Provide one value: measured inhibition of COc1ccccc1N1CCN(Cc2cc(C(C)C)c(C)cc2O)CC1
Result string: 6.3

Query string: Provide one value: measured inhibition of Cc1ccc(C2(C)CC(C)(C)N(C(=O)COc3ccc4ccccc4c3)c3ccccc32)cc1 (stereo not given)
Result string: -1.69

Query string: Provide one value: measured inhibition of O=C(Nc1ccc(F)c(C(F)(F)F)c1)NC1CCN(CCCCCNC(=O)C2CC2c2ccc(Cl)c(Cl)c2)CC1 (stereo not given)
Result string: 3.79

Query string: Provide one value: measured inhibition of CC(=O)c1ccc2c(c1)C(NC(=O)c1cccc(Cl)c1Cl)C(CO)C(C)(C)O2 (stereo not given)
Result string: 3.84

Query string: Provide one value: measured inhibition of CN(Cc1cccc(F)c1)C1CCN(c2cc(NC(=O)c3cccc(F)c3)ccn2)CC1
Result string: 3.18

Query string: Provide one value: measured inhibition of c1ccc(-c2nc(Nc3nc4ccccc4[nH]3)[nH]c2-c2ccccc2)cc1
Result string: 6.74

Query string: Provide one value: measured inhibition of Clc1ccc(Cn2nc(Br)nc2Br)c(Cl)c1
Result string: -1.03

Query string: Provide one value: measured inhibition of CNCCNCc1cccc(-c2ccc(-c3nc4ccccc4[nH]3)s2)c1
Result string: 1.53
